The measurements presented in this section are drawn from ChEMBL document CHEMBL3045057.

biological target: Tyrosine-protein phosphatase non-receptor type 1 (Homo sapiens, UniProt P18031); experiment: Inhibition of PTP1B (unknown origin); details: read-out: pIC50 (converted)
Sequence (P18031 whole entry): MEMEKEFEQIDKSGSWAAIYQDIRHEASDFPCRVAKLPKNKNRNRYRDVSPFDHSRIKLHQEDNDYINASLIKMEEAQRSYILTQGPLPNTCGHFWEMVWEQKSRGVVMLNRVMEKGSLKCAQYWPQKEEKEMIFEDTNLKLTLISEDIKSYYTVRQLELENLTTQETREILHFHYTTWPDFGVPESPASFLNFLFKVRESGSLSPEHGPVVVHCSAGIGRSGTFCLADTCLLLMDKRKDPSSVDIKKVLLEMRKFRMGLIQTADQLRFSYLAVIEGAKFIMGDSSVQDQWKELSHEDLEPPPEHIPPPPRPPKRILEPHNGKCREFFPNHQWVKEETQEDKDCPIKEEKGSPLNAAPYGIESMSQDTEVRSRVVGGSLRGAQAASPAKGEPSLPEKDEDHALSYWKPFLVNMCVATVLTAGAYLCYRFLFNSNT
readoutType: IC50 (µM)
API: value field is a number in µM; no unit string.

COc1ccc(CC(NC(=O)C[C@]23CCC(C)(C)C[C@H]2C2=CC[C@@H]4[C@@]5(C)CC[C@H](O)C(C)(C)[C@@H]5CC[C@@]4(C)[C@]2(C)CC3)C(=O)O)cc1 (some centres undefined) :: 0.6
CC1(C)CC[C@]2(C(=O)OCCCCC(=O)O)CC[C@]3(C)C(=CC[C@@H]4[C@@]5(C)CC[C@H](O)C(C)(C)[C@@H]5CC[C@]43C)[C@@H]2C1 :: 1.33
CC1(C)CC[C@]2(CC(=O)NC(Cc3ccc(F)cc3)C(=O)O)CC[C@]3(C)C(=CC[C@@H]4[C@@]5(C)CC[C@H](O)C(C)(C)[C@@H]5CC[C@]43C)[C@@H]2C1 (some centres undefined) :: 0.57
CC1(C)CC[C@]2(CC(=O)NC(Cc3ccccc3Cl)C(=O)O)CC[C@]3(C)C(=CC[C@@H]4[C@@]5(C)CC[C@H](O)C(C)(C)[C@@H]5CC[C@]43C)[C@@H]2C1 (some centres undefined) :: 0.56
CC1(C)CC[C@]2(CC(=O)NC(Cc3ccccc3)C(=O)O)CC[C@]3(C)C(=CC[C@@H]4[C@@]5(C)CC[C@H](O)C(C)(C)[C@@H]5CC[C@]43C)[C@@H]2C1 (some centres undefined) :: 0.57
COc1cc(CC(NC(=O)C[C@]23CCC(C)(C)C[C@H]2C2=CC[C@@H]4[C@@]5(C)CC[C@H](O)C(C)(C)[C@@H]5CC[C@@]4(C)[C@]2(C)CC3)C(=O)O)cc(OC)c1 (some centres undefined) :: 0.63
COc1ccc(CC(NC(=O)C[C@]23CCC(C)(C)C[C@H]2C2=CC[C@@H]4[C@@]5(C)CC[C@H](O)C(C)(C)[C@@H]5CC[C@@]4(C)[C@]2(C)CC3)C(=O)O)cc1OC (some centres undefined) :: 0.82
CC1(C)CC[C@]2(C(=O)O)CC[C@]3(C)C(=CC[C@@H]4[C@@]5(C)CC[C@H](OCc6ccccc6C(=O)O)C(C)(C)[C@@H]5CC[C@]43C)[C@@H]2C1 :: 4.58

Kindly review the next compound as well.
# value lookup — system Tyrosine-protein phosphatase non-receptor type 1 (Homo sapiens, UniProt P18031), readout IC50, item Cc1ccc(CC(NC(=O)C[C@]23CCC(C)(C)C[C@H]2C2=CC[C@@H]4[C@@]5(C)CC[C@H](O)C(C)(C)[C@@H]5CC[C@@]4(C)[C@]2(C)CC3)C(=O)O)cc1 (some centres undefined)
0.65
